- Tested system: full-length WRN helicase (Homo sapiens)
- Construct: Full length recombinant WRN [18], BLM [19], and FANCJ [20] proteins were purified from insect cells; made in house; host or cells: insect cells
- Sequence (Q14191 whole entry): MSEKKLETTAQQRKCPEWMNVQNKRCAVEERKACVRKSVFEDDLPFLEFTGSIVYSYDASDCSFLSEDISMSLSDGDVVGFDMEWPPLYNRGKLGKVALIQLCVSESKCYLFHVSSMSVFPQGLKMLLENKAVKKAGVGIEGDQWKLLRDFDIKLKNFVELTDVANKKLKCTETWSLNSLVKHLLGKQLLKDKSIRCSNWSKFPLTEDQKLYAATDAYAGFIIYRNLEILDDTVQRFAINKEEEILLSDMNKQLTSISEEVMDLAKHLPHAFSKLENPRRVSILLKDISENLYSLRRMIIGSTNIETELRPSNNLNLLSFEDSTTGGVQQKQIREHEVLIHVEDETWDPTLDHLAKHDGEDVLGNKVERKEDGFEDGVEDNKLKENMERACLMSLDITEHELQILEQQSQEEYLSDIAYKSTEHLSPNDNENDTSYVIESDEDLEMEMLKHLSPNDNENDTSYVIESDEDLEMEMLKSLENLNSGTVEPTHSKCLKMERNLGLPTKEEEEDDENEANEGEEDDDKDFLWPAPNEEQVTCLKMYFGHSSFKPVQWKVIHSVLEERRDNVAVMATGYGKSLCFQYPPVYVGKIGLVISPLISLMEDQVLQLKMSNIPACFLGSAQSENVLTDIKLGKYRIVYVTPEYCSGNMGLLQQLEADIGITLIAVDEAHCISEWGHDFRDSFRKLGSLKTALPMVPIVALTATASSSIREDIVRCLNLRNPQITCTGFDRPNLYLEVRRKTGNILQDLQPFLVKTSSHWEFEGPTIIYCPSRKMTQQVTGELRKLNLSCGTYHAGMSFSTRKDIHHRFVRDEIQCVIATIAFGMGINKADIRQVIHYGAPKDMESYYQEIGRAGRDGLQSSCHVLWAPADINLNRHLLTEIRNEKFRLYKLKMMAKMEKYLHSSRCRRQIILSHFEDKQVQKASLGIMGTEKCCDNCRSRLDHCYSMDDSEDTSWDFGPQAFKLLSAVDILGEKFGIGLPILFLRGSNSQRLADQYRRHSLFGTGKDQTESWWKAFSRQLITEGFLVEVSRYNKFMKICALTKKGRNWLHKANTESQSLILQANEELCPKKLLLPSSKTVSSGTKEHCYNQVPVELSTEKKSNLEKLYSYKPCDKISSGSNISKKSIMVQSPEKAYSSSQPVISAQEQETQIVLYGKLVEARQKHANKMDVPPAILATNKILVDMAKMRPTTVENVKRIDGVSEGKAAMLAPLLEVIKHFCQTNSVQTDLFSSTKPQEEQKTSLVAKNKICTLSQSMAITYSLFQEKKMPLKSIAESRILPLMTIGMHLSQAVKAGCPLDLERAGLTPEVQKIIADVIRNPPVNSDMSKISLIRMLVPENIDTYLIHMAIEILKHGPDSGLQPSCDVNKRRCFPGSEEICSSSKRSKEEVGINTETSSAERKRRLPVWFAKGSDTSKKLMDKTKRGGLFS
- Method notes: Radiometric helicase inhibitor reversibility assay (100-fold dilution)
- Assay type: biochemical
- Design: key: (-) = irreversible; (+) = minimally reversible; (++) = partially reversible; (+++) = reversible
- Applied conditions: WRN 100 nM preincubated at 10-fold IC50, diluted 100-fold; unwinding 0-16 min

- Molecule: "Cc1ccc(C(=O)Nc2nnc([S+](=O)([O-])N(C)Cc3ccco3)s2)cc1 [NCGC00120906-02]"
  Tested system: "full-length WRN helicase (Homo sapiens)"
  Reversibility: "-"
- Molecule: "CC1=C(C(=O)Nc2ccccc2)C(c2ccc[nH]2)n2ncnc2N1 (stereo not shown) [NCGC00132363-04]"
  Tested system: "full-length WRN helicase (Homo sapiens)"
  Reversibility: "-"
- Molecule: "Cc1ccc(CN(C)C(=O)CCc2nc(O)c3c4c(sc3n2)CCCC4)o1 [MLS001160745-02]"
  Tested system: "full-length WRN helicase (Homo sapiens)"
  Reversibility: "+"
- Molecule: "CCOc1ccc(-c2nc(SCC(=O)Nc3ccc(C)c(C)c3)n3[nH]c(=O)cc3n2)cc1 [NCGC00128865-02]"
  Tested system: "full-length WRN helicase (Homo sapiens)"
  Reversibility: "++"
